Measured IC50, listed per entry.
ASSAY DETAILS: Cytostatic activity against human H460 cells assessed as growth inhibition after 3 to 4 days by MTT assay
Assay type: functional, cell-based
MEASUREMENT SETUP: NCI-H460
QUANTITY NAME: IC50

[[record]]
molecule = "COc1cc(NC(C)CCCNC(=O)NCCCC(C)Nc2cc(OC)cc3cccnc23)c2ncccc2c1 (stereo unspecified)"
recorded_result = "> 100 µM"

[[record]]
molecule = "COc1cc(NC(C)CCCNC(=O)N(C)C(c2ccccc2)c2ccccc2)c2ncccc2c1 (stereo unspecified)"
recorded_result = "≥ 100 µM"

[[record]]
molecule = "O=C(NC(c1ccccc1)c1ccc(Cl)cc1)NC(c1ccccc1)c1ccc(Cl)cc1 (stereo unspecified)"
recorded_result = "> 100 µM"

[[record]]
molecule = "COc1cc(NC(C)CCCNC(=O)NC(c2ccccc2)c2ccc(Cl)cc2)c2ncccc2c1 (stereo unspecified)"
recorded_result = "> 100 µM"

[[record]]
molecule = "CCOC(=O)NC(c1ccccc1)c1ccc(Cl)cc1 (stereo unspecified)"
recorded_result = "> 100 µM"

[[record]]
molecule = "CCOC(=O)N(C)C(c1ccccc1)c1ccccc1"
recorded_result = "≥ 100 µM"

[[record]]
molecule = "O=C1NCCN1C(c1ccccc1)(c1ccccc1)c1ccccc1"
recorded_result = "> 100 µM"

[[record]]
molecule = "COc1cc(NC(C)CCCNC(=O)NCCNC(c2ccccc2)(c2ccccc2)c2ccccc2)c2ncccc2c1 (stereo unspecified)"
recorded_result = "> 100 µM"

[[record]]
molecule = "CN(C(=O)NN)C(c1ccccc1)c1ccccc1"
recorded_result = "> 100 µM"

[[record]]
molecule = "COc1ccc(/C(=N/NC(=O)NCCCC(C)Nc2cc(OC)cc3cccnc23)c2ccccc2)cc1 (stereo unspecified)"
recorded_result = "> 100 µM"

[[record]]
molecule = "COc1cc(NC(C)CCCNC(=O)NN)c2ncccc2c1 (stereo unspecified)"
recorded_result = "> 100 µM"

